Examples of binders with documented neutralization EC50 follow.
measured on: BKV serotype IV chimeric infectious virus (VP1 of strain ITA-4) (BK virus serotype IV)
assay name: cell-based or functional assay
Just the number please, in µg/mL, no unit attached.

Exam item: Please report the recorded neutralization EC50 for P7G11 (antibody, human IgG1, lambda, V domains shown) VH: QVQLQESGPGLAKPSQTLSLTCSVSGGSISSGGYSWSWIRQPPGKGLEYIGYIYYRGTTYYNPSLKSRITMSVDTSNNQISLKLTSVTAADTAVYYCARALTHLVGVGWFDPWGQGTMVTVSS VL: QSVLTQPPSVSAAPGQKVTISCSGGSSNLGSNYVSWYQQLPGTAPKLLIYDNNKRPSGIPDRFSGSKSGTSATLGITGLQTGDEADYYCGTWDGSLSAWVFGGGTKVTVLG .
Marked response: 0.011

Exam item: Quick one: neutralization EC50 for P7G11A (antibody, human IgG1, lambda, V domains shown) VH: QVQLQESGPGLVKPSQTLSLTCTVSGGSISSGGYSWSWIRQPPGKGLEYIGYIYYRGTTYYNPSLKSRVTISVDTSNNQISLKLSSVTAADTAVYYCARALTHLVGVGWFDPWGQGTMVTVSS VL: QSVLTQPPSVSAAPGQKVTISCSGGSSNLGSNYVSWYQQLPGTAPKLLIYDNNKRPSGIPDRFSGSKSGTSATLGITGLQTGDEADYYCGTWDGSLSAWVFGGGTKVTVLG ?
Marked response: 0.015

Exam item: For the binder shown here, NEG447 (antibody, human IgG1, lambda, V domains shown) VH: QVQLQESGPGLVKPSETLSLTCTVSGGSISRDYWSWVRQPPGAGLEWIGNIYYSGSTNYNPSLKSRVTISVATNKKQFSLKLTSVTAADTAVYYCARVPGCSSTSCIDGWFDPWGQGILVTVSS VL: QSVLTQPPSLSAAPGQKVTISCSGSSSNIGNTYVSWYQQLPGTAPKLLIYDNNKRPSGIPDRFSGSKSGTSATLGITGLQTGDEAVYYCGTWDSSLSAWVFGGGTRLTVLG , give the reported neutralization EC50.
Marked response: 0.012

Exam item: Need neutralization EC50, item P8D11C (antibody, V domains shown) VH: QVQLVESGGTLVQPGGSLRLSCAASGFTFQNYWMTWVRQAPGKGLEWVANIKKDGSEKYYVDSVRGRFTISRDNAKNSLFLQMNSLRPEDTAVYFCATVRSGRYFALDDWGQGTLVTVSS VL: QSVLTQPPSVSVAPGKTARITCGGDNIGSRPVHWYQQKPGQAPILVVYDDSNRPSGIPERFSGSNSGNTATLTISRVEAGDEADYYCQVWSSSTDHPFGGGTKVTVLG
Marked response: 0.005
